- experimentSummary: Cell Viability - LYMP2-021 (AID 974);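 also: compound exposure lasts 24 hours at 37 °C; % is scaled to controls: 0 for no effect and ±100 for the full control effect; nearly all actives have a fitted effect of over 55% in size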
- conditionSet: LYMP2-021 lymphoblastoid cells viability; series mostly up to 92.2 µM
Records with an inconclusive call do not appear. The source made the active and inactive calls. Calls follow the shape of the dose curve; as a rule, active = well fitted cell-killing curve with a large enough effect; inconclusive = small, poorly fitted or top-dose-only effect; inactive = flat fitted curve, though single readings scatter.
Bench note: report the call from active, inactive

What outcome does the record of this test show for O=P(O)(O)O ?
inactive

What outcome does the record of this test show for CO ?
inactive

* * *

- Test system: C2A
- experimentSummary: qHTS profiling for inhibitors of Plasmodium falciparum proliferation (AID 504749); also: nearly all actives have a fitted effect of over 60% in size
- conditionSet: P. falciparum in erythrocytes, SYBR Green DNA, 72 h; series mostly up to 28.7 µM
Records with an inconclusive call do not appear. The source made the active and inactive calls. The call rests on the fitted dose curve; in most records, active means well fitted inhibition curve with a large enough effect; inconclusive means small, poorly fitted or top-dose-only effect; inactive means flat fitted curve, though single readings scatter.
Bench note: report the call from 1 (yes) for active, 0 (no) for inactive

>>> df
                                   compound  targetsystem  answerlabel
0               [O]=[Bi][O]C(=O)[O][Bi]=[O]           C2A       0 (no)
1  O=C(O)/C=C/C(=O)Nc1ccc(S(=O)(=O)Nc2nccs2)cc1           C2A       0 (no)

What outcome does the record of this test show for OCCOCCOCCO ?
0 (no)

What outcome does the record of this test show for O=C(O)CCCC/C=C(\c1ccccc1)c1cccnc1 ?
0 (no)

What outcome does the record of this test show for CC(C)(C)c1ccc2c(S(=O)(=O)O)c(C(C)(C)C)ccc2c1 ?
0 (no)

What outcome does the record of this test show for CC(C)CCCC(C)NC(C)C (stereo not given) ?
0 (no)

What outcome does the record of this test show for O=C(CCCN1CCC(C(=O)c2ccc(F)cc2)CC1)c1ccc(F)cc1 ?
0 (no)

What outcome does the record of this test show for CO/N=C(/C(=O)N[C@@H]1C(=O)N2C(C(=O)O)=C(COC(N)=O)CS[C@H]12)c1ccco1 ?
0 (no)

What outcome does the record of this test show for CN(C)c1ccc(C(=C2C=CC(=[N+](C)C)C=C2)c2c(O)c(S(=O)(=O)[O-])cc3cc(S(=O)(=O)O)ccc23)cc1 ?
0 (no)

What outcome does the record of this test show for O=C(O)CCC(=O)c1ccc(-c2ccccc2)cc1 ?
0 (no)

What outcome does the record of this test show for OCCCNc1ccccc1 ?
0 (no)

What outcome does the record of this test show for CC(=O)[O][Al][O]C(C)=O ?
0 (no)

What outcome does the record of this test show for CCOC(=S)SSC(=S)OCC ?
0 (no)

What outcome does the record of this test show for CC1=CC(=C(c2ccc(N)cc2)c2ccc(N)cc2)C=CC1=N ?
1 (yes)

* * *

- System: TAB109
- experimentSummary: qHTS profiling for inhibitors of Plasmodium falciparum proliferation (AID 504749); also: nearly all actives have a fitted effect of over 60% in size
- conditionSet: P. falciparum in erythrocytes, SYBR Green DNA, 72 h; series mostly up to 28.7 µM
Inconclusive results are not listed. Activity calls are given as the source filed them. Calls come from the whole dose curve; as a rule, active = well fitted inhibition curve with a large enough effect; inconclusive = small, poorly fitted or top-dose-only effect; inactive = flat fitted curve, though single readings scatter.
Bench note: report the call from 1 for active, 0 for inactive

                                   compound  targetsystem  answerlabel
0  CC(=O)c1ccc2c(c1)N(CCCN1CCN(CCO)CC1)c1ccccc1S2        TAB109            1
1    O.O.O.O.O.O.O.O=S(=O)([O-])[O-].[Co+2]        TAB109            1
2                   NCCO/C=C/[C@H](N)C(=O)O        TAB109            0
3  COC(=O)C(CN)c1c[nH]c2ccc(OC)cc12 (configuration not stated)        TAB109            0
4                      CCCCCCOC(=O)c1cccnc1        TAB109            0
5  O=C(O)c1ccc(NC(=O)[C@H](Cc2ccc(O)cc2)NC(=O)c2ccccc2)cc1        TAB109            0
6  CC(=O)Nc1c(I)c(C(=O)O)c(I)c(N(C)C(C)=O)c1I        TAB109            0
7  O=C(O[C@H]1CN2CCC1CC2)N1CCc2ccccc2[C@@H]1c1ccccc1        TAB109            0
8  Cc1cc(C)c(NC(=O)C[C@H](CC(=O)O)c2cccc3ccccc23)c(C(=O)N2CCC3(CCCC3)CC2)c1        TAB109            0
9               [O]=[Bi][O]C(=O)[O][Bi]=[O]        TAB109            0

What outcome does the record of this test show for CCOc1ccc(NC(=S)Nc2ccc(OCC)cc2)cc1 ?
0

What outcome does the record of this test show for O=S(=O)(O)CC(S)CS (configuration not stated) ?
0

* * *

- experimentSummary: Cellular Toxicity (caspase-3) Hek293 (AID 664);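 also: cells exposed to compound for 16 h at 37 °C before readout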
- conditionSet: HEK293 caspase-3 activation, DMSO = 0%, 100 µM tamoxifen = 100%; at 92.2 µM (top of the series)
Inconclusive results are not listed.
In this section, each of the compounds is paired with its reported caspase-3 activation.
Give just the number in %; leave the unit off.

Recorded caspase-3 activation, per entry:
smilesRepresentation	caspase-3 activation, %
CO	-0.124
OC[C@H]1O[C@@H]2O[C@H]3[C@H](O)[C@@H](O)[C@@H](O[C@H]4[C@H](O)[C@@H](O)[C@@H](O[C@H]5[C@H](O)[C@@H](O)[C@@H](O[C@H]6[C@H](O)[C@@H](O)[C@@H](O[C@H]7[C@H](O)[C@@H](O)[C@@H](O[C@H]1[C@H](O)[C@H]2O)O[C@@H]7CO)O[C@@H]6CO)O[C@@H]5CO)O[C@@H]4CO)O[C@@H]3CO	0.542
NC(N)=O	1.05

Next compound, please.
// Input: CCCCC . Output its caspase-3 activation only.
2.68

* * *

- Tested on: Dd2
- experimentSummary: qHTS profiling for inhibitors of Plasmodium falciparum proliferation (AID 504749); also: nearly all actives have a fitted effect of over 60% in size
- conditionSet: P. falciparum in erythrocytes, SYBR Green DNA, 72 h; series mostly up to 28.7 µM
Inconclusive results are not listed. Activity calls are given as the source filed them. The call rests on the fitted dose curve; in most records, active means well fitted inhibition curve with a large enough effect; inconclusive means small, poorly fitted or top-dose-only effect; inactive means flat fitted curve, though single readings scatter.
Bench note: report the call from t (active), f (inactive)

Please review the entries below; each comes with its answer.
In [3]: df
Out[3]:
                                   compound  answerlabel
0         CCOc1ccc(NC(=S)Nc2ccc(OCC)cc2)cc1            f
1  CC(C)c1nc(N(C)S(C)(=O)=O)nc(-c2ccc(F)cc2)c1/C=C/C(O)CC(O)CC(=O)O (configuration not stated)            f
2        Nc1ncnc2c1ncn2[C@H]1CC[C@@H](CO)O1            f
3                             OCCCNc1ccccc1            f

What outcome does the record of this test show for CCCOC(=O)c1ccccc1O ?
f

What outcome does the record of this test show for CCN(CC)C(=O)c1cccnc1 ?
f

What outcome does the record of this test show for CCCc1nc(C(C)(C)O)c(C(=O)OCc2oc(=O)oc2C)n1Cc1ccc(-c2ccccc2-c2nn[nH]n2)cc1 ?
f

What outcome does the record of this test show for c1ccc2c(c1)Sc1ccccc1N2CCN1CCCC1 ?
t

What outcome does the record of this test show for O=C(CCCN1CCC(C(=O)c2ccc(F)cc2)CC1)c1ccc(F)cc1 ?
t

What outcome does the record of this test show for CCOc1ccc(S(=O)(=O)O)c2cccnc12 ?
f

What outcome does the record of this test show for COc1ccc2c(c1)OC(C)(C)C(c1ccccc1)C2c1ccc(OCCN2CCCC2)cc1 (configuration not stated) ?
t

* * *

- experimentSummary: qHTS Assay for Identifying Gametocytocidal Compounds (AID 743244);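 also: % is scaled to controls: 0 for no effect and ±100 for the full control effect; actives lower the fluorescent signal which means gametocytes are killed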
- conditionSet: P. falciparum 3D7 stage III-V gametocytes, alamarBlue, 72 h; hits give low values
Inconclusive results are not listed. Where a SMILES comes first, the peptide text is derived from it. Bridges are numbered along the chain shown (N, C = ends). [ ]: non-standard residue; d: D form. The star is where a group is joined. X2 = CC[C@H](C)CCCCC(=O)*; Dab = NCC[C@H](N)C(=O)O
Lab note: anything with max response below 10% is marked class 1; values at 10% or higher are marked class 0.

compound	answerLabel
Nc1ncnc2c1ncn2CCOCP(=O)(O)O	class 1
FC(F)(F)C(F)(F)C(F)(F)C(F)(F)C(F)(F)C(F)(F)F	class 0
CN(C)CCOc1ccc(/C(=C(/CCCl)c2ccccc2)c2ccccc2)cc1	class 1
CC(=O)[O][Al][O]C(C)=O	class 1
CCOC(=O)[C@H](CS)NCCN[C@@H](CS)C(=O)OCC	class 1
O=C(O)CCC/C=C\C[C@@H]1[C@@H](/C=C/[C@@H](O)COc2cccc(Cl)c2)[C@H](O)C[C@@H]1O	class 1
CC(C)CN(C[C@@H](OP(=O)(O)O)[C@H](Cc1ccccc1)NC(=O)O[C@H]1CCOC1)S(=O)(=O)c1ccc(N)cc1	class 1
Cc1ccc(S(=O)(=O)NC(=O)N[C@@H](C)Cc2ccccc2)cc1	class 0
CC(=O)NCCCS(=O)(=O)O	class 1
Cc1ccc(S(=O)(=O)NCl)cc1	class 1

Just wondering, is max response of CC(C)CCC[C@@H](C)[C@H]1CC[C@H]2[C@@H]3CC[C@@H]4C[C@H](O)CC[C@]4(C)[C@H]3CC[C@]12C below 10%?
class 1

Just wondering, is max response of CC[C@H](C)CCCCC(=O)N[C@@H](CCN)C(=O)N[C@H](C(=O)N[C@@H](CCN)C(=O)N[C@H]1CCNC(=O)[C@@H]([C@H](C)O)NC(=O)[C@H](CCN)NC(=O)[C@H](CCN)NC(=O)[C@H](CC(C)C)NC(=O)[C@@H](CC(C)C)NC(=O)[C@H](CCN)NC1=O)[C@@H](C)O (X2-[Dab]T[Dab][Dab][Dab][dL]L[Dab][Dab][dT]; lactam 4-C) below 10%?
class 1

Just wondering, is max response of CC(C)CCCC(C)NC(C)C (stereo not given) below 10%?
class 0

Just wondering, is max response of S=C=Nc1ccc(N=C=S)cc1 below 10%?
class 1

Just wondering, is max response of CN1CCC(OC(=O)C(Oc2ccc(Cl)cc2)Oc2ccc(Cl)cc2)CC1 below 10%?
class 0

Just wondering, is max response of CCC(O)c1ccccc1 (stereo not given) below 10%?
class 0

Just wondering, is max response of C[C@H](O)CN(C)C below 10%?
class 1

Just wondering, is max response of C=C(C)C1CC=C(C)CC1 (stereo not given) below 10%?
class 1

Just wondering, is max response of CCCCC/C=C\C/C=C\C/C=C\CCCCC(=O)O below 10%?
class 0

Just wondering, is max response of C[C@@H]1C[C@H]2[C@@H]3CCC4=CC(=O)C=C[C@]4(C)[C@@]3(F)[C@@H](O)C[C@]2(C)[C@@]1(O)C(=O)COC(=O)c1cccc(S(=O)(=O)O)c1 below 10%?
class 0
